Molecular target: RUNX1 (UniProt Q01196)
Sequence (Q01196 whole entry): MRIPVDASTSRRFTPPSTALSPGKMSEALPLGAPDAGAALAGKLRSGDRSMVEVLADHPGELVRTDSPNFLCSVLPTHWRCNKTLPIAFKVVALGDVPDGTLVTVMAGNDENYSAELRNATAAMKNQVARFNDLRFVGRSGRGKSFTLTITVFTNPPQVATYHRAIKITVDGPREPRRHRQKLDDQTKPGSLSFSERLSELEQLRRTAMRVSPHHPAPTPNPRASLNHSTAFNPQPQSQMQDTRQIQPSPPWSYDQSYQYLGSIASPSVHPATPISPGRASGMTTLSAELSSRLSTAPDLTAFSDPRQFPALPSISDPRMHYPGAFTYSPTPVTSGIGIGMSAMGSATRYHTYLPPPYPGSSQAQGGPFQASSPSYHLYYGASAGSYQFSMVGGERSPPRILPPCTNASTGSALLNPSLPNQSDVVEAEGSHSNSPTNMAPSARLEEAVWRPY
Assay: RUNX1 binding intensity (PBM fluorescence) in presence of ETS1, normalised to RUNX1-only experiment (arbitrary fluorescence units); higher = stronger binding;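 also: Full-length recombinant human ETS1 or RUNX1 bound to double-stranded 36-bp genomic probes on microarrays, detected by protein-specific primary antibody and Alexa488 secondary, spot fluorescence as median of four replicate spots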
Settings: RUNX1 concentration 2 nM; ETS1 concentration 25 nM
Field: class. Source value: RUNX1 binding intensity. Ranges: low (below 1000), intermediate (1000 to below 2000), high (2000 or more)

The following sequences have reported results that may help.
Biosequence | Assigned category
TAAATGTTTCCTAAAAGCTCTTTCATAAACCACAGT | low
AGGCCTCGCTTCCTCTCCTGACCACACCCTGCAGCT | intermediate
TGGTTTCCGGGCTGGGGTTAGAATAGGCCACAAGGT | intermediate
AGTTTCCTGAACTCAGAGCACAGTTGTGGTGCAGAA | intermediate
CTAACAGCAGGAAGTGCTTGGTGGTTTAGCACCTCA | intermediate

Now take the following sequence into account.
# input Hello team, could you let me know which band the following sequence falls into: CACTTCCTCCTCGGGGGCCTCAGAAAACCACAGGGC
# output high

---

Biological target: RUNX1 (UniProt Q01196)
Test: RUNX1 binding intensity (PBM fluorescence) in presence of ETS1, normalised to RUNX1-only experiment (arbitrary fluorescence units); higher = stronger binding
Details: RUNX1 concentration 2 nM; ETS1 concentration 25 nM
// reported RUNX1 binding intensity per item
Answer with a number only.

Biosequence | RUNX1 binding intensity
TTCGGATTCCCGGAAGAACCCGCAGCAGCTCCCAGG | 1190
GCCTGTCGCAGGAACGGAAGTGGTTACGGCCCTAGT | 3500
GAGAGAGGCAGGAAGTGTTGTGGTTATTGTTTGAGC | 2210
ACTACAACTTCCGACTTGCATCACTGCGGTGGCGCT | 1830
GTGGCTATGGGAAGTGGGGTGCGGTTTCTGCCGGGG | 1670

Entry CCCGCTCACGCCGGAAGTGGTTTGCGTTTTCAAGAT — recorded RUNX1 binding intensity = 7390

Entry CTGCAGATGCATTTCCTTTTTGTGGTAGCAAGCGTG — recorded RUNX1 binding intensity = 1470

Entry GGTTGTAAGTTCACAGGATGTGGTGTGTCCCTGTGG — recorded RUNX1 binding intensity = 1400

Entry CCCTGGGGCCCCACTTCCTTGCCCACAAGAAAGGAC — recorded RUNX1 binding intensity = 1360

Entry CCCGGCCACTTCCGCCTATTGCGGGCGTCGGCTAGG — recorded RUNX1 binding intensity = 4310

Entry CCTGTTGATAAAACAGGATGTGGTAAAGAAGCTGGC — recorded RUNX1 binding intensity = 10300

---

Biological target: RUNX1 (UniProt Q01196)
Test: RUNX1 binding intensity (PBM fluorescence) in presence of ETS1, normalised to RUNX1-only experiment (arbitrary fluorescence units); higher = stronger binding
Settings: RUNX1 concentration 2 nM; ETS1 concentration 25 nM
Lab note: anything with RUNX1 binding intensity at or over 2000 counts as label 1; the rest go in label 0.

Biosequence | Assigned category
AAAGGCGGAAGGGGGGCAGGGAACCCACAAAACAGA | label 0

# input Decide: is the reported value of RUNX1 binding intensity for CACCTCACAGCCCGGATACAAACCGCCTACCCGCCC equal to or greater than 2000?
# output label 0

# input Decide: is the reported value of RUNX1 binding intensity for TTAGAGCTGACATCCTTGCGGTCCACAGCCTCCAAA equal to or greater than 2000?
# output label 0
